test_system: DRB1*1302 (Homo sapiens, UniProt P01903+P01911, A100E/A169T/K41T/L162R/M171V/P40S/Q125H/Q178H/Q39Y/Q99D/R42S/S66N/T262R/V115G/W38E/Y61H)
Sequence (P01903 26-254 limits assumed, other chains not shown): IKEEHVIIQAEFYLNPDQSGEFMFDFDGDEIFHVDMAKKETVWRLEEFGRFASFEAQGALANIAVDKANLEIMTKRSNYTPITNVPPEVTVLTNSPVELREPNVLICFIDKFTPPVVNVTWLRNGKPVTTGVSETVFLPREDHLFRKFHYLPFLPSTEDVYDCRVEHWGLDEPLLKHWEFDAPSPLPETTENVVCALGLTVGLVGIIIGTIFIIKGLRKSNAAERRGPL
assay_info: biochemical
Assay type: binding
measure_name: IC50 (µM)

CC[C@H](C)[C@H](NC(=O)[C@@H](NC(=O)[C@@H]1CCCN1C(=O)[C@@H](NC(=O)[C@@H](NC(=O)[C@H](CC(N)=O)NC(=O)CNC(=O)[C@H](CO)NC(=O)[C@H](CS)NC(=O)[C@H](CC(C)C)NC(=O)[C@H](CCCCN)NC(=O)[C@H](CCCNC(=N)N)NC(=O)[C@H](CCCNC(=N)N)NC(=O)[C@@H](N)CCCCN)[C@@H](C)O)[C@@H](C)O)[C@@H](C)CC)C(=O)N[C@@H](Cc1c[nH]cn1)C(=O)O [Peptide 1601.16]; 0.0076
CSCC[C@H](NC(=O)[C@H](Cc1ccc(O)cc1)NC(=O)[C@H](Cc1ccc(O)cc1)NC(=O)[C@@H](NC(=O)[C@@H](N)CO)C(C)C)C(=O)N[C@H](C(=O)N[C@@H](CC(=O)O)C(=O)N[C@@H](C)C(=O)NCC(=O)N[C@H](C(=O)N[C@@H](Cc1c[nH]c2ccccc12)C(=O)N[C@@H](CC(=O)O)C(=O)N[C@@H](CCCCN)C(=O)N[C@H](C(=O)N[C@@H](C)C(=O)O)[C@@H](C)O)[C@@H](C)O)[C@@H](C)O [Peptide 90.0182]; 0.014
CC[C@H](C)[C@H](NC(=O)CNC(=O)[C@H](CCC(=O)O)NC(=O)[C@H](Cc1c[nH]cn1)NC(=O)[C@@H](NC(=O)[C@H](Cc1ccc(O)cc1)NC(=O)[C@H](Cc1ccc(O)cc1)NC(=O)[C@H](CC(C)C)NC(=O)CN)C(C)C)C(=O)N[C@@H](CCCNC(=N)N)C(=O)N[C@H](C(=O)N[C@@H](Cc1ccc(O)cc1)C(=O)N[C@@H](Cc1ccccc1)C(=O)N[C@H](C(=O)N[C@@H](CCC(N)=O)C(=O)O)C(C)C)[C@@H](C)O [Peptide 90.0171]; 0.532
